Reference for the values: the supplement of paper PMC9170038

# System: MS2 coat protein
# Assay Comment: apparent KD of MS2 coat protein; designed switch direction (-1 OFF switch, 1 ON switch): -1; higher = weaker reporter binding
# Test Parameters: Eterna round: R95; input ligand: microRNA oligo, concentration not stated
Field: class. Source value: apparent KD of MS2 coat protein. Ranges: zone 1 (below 20 nM), zone 2 (20 nM to below 40 nM), zone 3 (40 nM or more)

Worked cases, answers included:
CUGGUCCGAGGAUAUAUGAUGUGAAACAUGAGGAUCACCCAUGUAAUAUUAUGGAUGUAAAUAGAAGGCGGACUAG [JL-ex5-3.08] (puzzle: Exclusion 5)    zone 2
GUUAAACAUGAGGAUCACCCAUGUAAGGAUAUGCUGCGGUCGCGAUGAAGUGACUGCAGCAGAAGGUACAAAUG [Mat - Mod of JL D59] (puzzle: Exclusion 1)    zone 3
GAUAGACAUGAGGAUCACCCAUGUGAGGAUAUGCGUACGUUGUCCGUAGGCGACGUGCGCAGAAGGCGCGAGGU [Mat - Mod of JL D93] (puzzle: Exclusion 1)    zone 3
AAAUUAAGUGUGAGGAUAUGCUGGUCCAUAGAUCAGCAGAAGGCACAUGAGGAUCACCCAUGUAAUAUAUUUAA [Mat - Exclusion 4 - JL Mod - D51] (puzzle: Brourd's mod of Exclusion 4)    zone 2
CCAAUGUAAGGAUAUGACAAUGGUAUCUUCGGAUACCAUUGUCAGAAGGUACAUGAGGAUCACCCAUGUACAAA [Ex4-3: 9] (puzzle: Exclusion 4)    zone 1

*Q* Form: Item = CCGGAAAUGAAGGAUAUAGGAGUCGAUAGACACCUAGAAGGUCAUACAUGAGGAUCACCCAUGUGUCCUACCGG [Fiskers Ex 6 - 78] (puzzle: Exclusion 6) ; Class = ?
*A* zone 1

*Q* Form: Item = GGAUCGAAUGUGAGGAUAUACCACUGGAUACAGUGGUAGAAGGCACAUGAGGAUCACCCAUGUCCUUACGAUCC [Fiskers BMX 4 - 47] (puzzle: Brourd's mod of Exclusion 4) ; Class = ?
*A* zone 3

*Q* Form: Item = GCCGAUUAAGUGAGGAUAUACCUAUGGAUACAUAGGUAGAAGGUACAUGAGGAUCACCCAUGUUCCUCAUCGGC [Fiskers BMX 4 - 10] (puzzle: Brourd's mod of Exclusion 4) ; Class = ?
*A* zone 1

*Q* Form: Item = AAAUACAAGUAGAGAUUCUACAUGAGGAUCACCCAUGUGCUCGUCUUAUAAAGUACUAUCACGAAAGUGAUAGUACA [Sensor 3, v1 - 37] (puzzle: Sensor v3, turn-off variant 1) ; Class = ?
*A* zone 3
